- Tested on: Saccharomyces cerevisiae
- Test method notes: protein stability index of tFT-peptide fusion (C-terminal peptide) (PSI (0-1 scale)); higher = more stable (slower turnover);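 also: PSI is a weighted mean of sequencing reads over stability bins, variants kept only with over 10 reads, mCherry proximal and sfGFP distal, peptide attached via GGGS linker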
- Assay context: genetic background: doa10 deletion; temperature: 30 C
As shown below, each of these sequences has a reported protein stability index value.

The examples below pair each entry with its known result.
sequence_string=FSAVVCPTVFLC system_under_test="Saccharomyces cerevisiae" measured_endpoint="protein stability index" result=0.0928
sequence_string=LVWDLFRCFSML system_under_test="Saccharomyces cerevisiae" measured_endpoint="protein stability index" result=0.23
sequence_string=LRMSLLVFLLFA system_under_test="Saccharomyces cerevisiae" measured_endpoint="protein stability index" result=0.249
sequence_string=GSRVICMVVATM system_under_test="Saccharomyces cerevisiae" measured_endpoint="protein stability index" result=0.419
sequence_string=AERPVLIIIEFG system_under_test="Saccharomyces cerevisiae" measured_endpoint="protein stability index" result=0.296
sequence_string=LVPYLWWLVFAL system_under_test="Saccharomyces cerevisiae" measured_endpoint="protein stability index" result=0.202

Item under review: `LAINVRRELLFF` . Reported protein stability index? 0.134

Input `CCFVGLRYVLWV` 0.278

What do you have for `FFPFHPHVLRLL` ? 0.215

And for `AVPTSPYSLIVY` ? 0.326

Entry `GVFRYKLILRKM` please 0.269

Same read-out for `ALTLSYAIKLKV` ? 0.248

Now the sequence `VLVVVRSLSFLS` 0.308

* * *

- System: Saccharomyces cerevisiae
- Test method notes: protein stability index of tFT-peptide fusion (C-terminal peptide) (PSI (0-1 scale)); higher = more stable (slower turnover)
- Assay context: genetic background: cdc53-1; temperature: 37 C
Reported protein stability index is given for each of the following sequences.
Respond numerically, and do not add a unit to the figure.

Some solved cases for reference:
sequence_string=SLSALPRPPRLL measured_endpoint="protein stability index" numeric_readout=0.713
sequence_string=QGRRKEKAVTLN measured_endpoint="protein stability index" numeric_readout=0.685
sequence_string=SSGRLRFISRIH measured_endpoint="protein stability index" numeric_readout=0.706

Entry `WGRFFWGCGVWV` has what protein stability index? 0.713

Note, next up: `TYYPLNRSRFIG` 0.726

Try this sequence too: `VVLRCGCLVFIN` 0.577

* * *

- System: Saccharomyces cerevisiae
- Test method notes: protein stability index of tFT-peptide fusion (C-terminal peptide) (PSI (0-1 scale)); higher = more stable (slower turnover)
- Assay context: genetic background: cdc34-1; temperature: 37 C
Measured protein stability index, listed per entry.

sequence_string=LVLCCGFWFRAV measured_endpoint="protein stability index" result=0.619

Suppose we examine the sequence `LSLLCFVASVVA` ; what protein stability index value has been reported? 0.168

Same question for `VRFSAVFVKVGV` please. 0.547

* * *

- System: Saccharomyces cerevisiae
- Test method notes: protein stability index of tFT-peptide fusion (C-terminal peptide) (PSI (0-1 scale)); higher = more stable (slower turnover)
- Assay context: genetic background: wild type; temperature: 30 C
Measured endpoint: protein stability index
Kindly provide the number alone.

Consider the sequence `CFSFLEYCTSLP` and give its measured protein stability index. 0.704

Please answer likewise for `IRCHSERKSWMY` 0.7

What do you get for `TKIENYKRKRAK` ? 0.708

Now consider `KKKKQNKKKIKK` and answer again. 0.68

Also `LRARTPPPSHLP` , if possible. 0.693

Also need `CSSSLLDSPPAL` , thanks. 0.703

Consider next the sequence `PHTLPPLLRHAP` in the same way. 0.693

Follow-up entry: `VRGRREGVADER` 0.712

For `RPPNPPPALPPL` then? 0.701

Here is the next sequence: `RGGPQARRLRPY` 0.706

Please give the result for `ELCWCSKDNCYP` too. 0.699

Query `CGTYPTFCGLGV` next 0.68

Param item: `TMQDSNKSQGCA` 0.706

Next record, please: `GVCTGSFVFYLT` 0.686

Check `WSVGRVGGCGAR` too. 0.704

Also need `ILRPAPVFPLDP` , thanks. 0.689
